Target: T1, human FcγRIIB (human, UniProt P31994 46-217)
T1 construct: also called CD32B
T1 sequence (looked up): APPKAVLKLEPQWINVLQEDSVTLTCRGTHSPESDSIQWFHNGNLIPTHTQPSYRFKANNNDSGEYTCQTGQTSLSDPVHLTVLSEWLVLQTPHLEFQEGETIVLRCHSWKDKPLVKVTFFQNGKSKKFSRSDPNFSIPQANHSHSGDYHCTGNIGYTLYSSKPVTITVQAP
Assay: ELISA
EXPERIMENTAL ENDPOINT: binding result

## Task Please report the measured binding result for [change]/[change]/[change] (other) NKTHTCPPCPAPELLGGPSVFLFPPKPKDTLMISRTPEVTCVVVDVSHEDPEVKFNWYVDGVEVHNAKTKPREEQYNSTYRVVSVLTVCLQDWLNGKEYKCKVSNKALPAPIEKTISKAKGQPREPQVYTLPPSREEMTKNQVSLTCLVKGFYPSDIAVEWESNGQPENNYKTTPPVLDSDGSFFLYSKLTVDKSRWQQGNVFSCSVMHEALHNHYTQKSLSLSPGKLVLGPPLYAVSLVMSDTAGTAY
## Result no binding

## Task Please report the measured binding result for [change]/[change]/[change] (other) NKTHTCPPCPAPELLGGPSVFLFPPKPKDTLMISRTPEVTCVVVDVSHEDPEVKFNWYVDGVEVHNAKTKPREEQYASTYRVVSVLTVCLQDWLNGKEYKCKVSNKALPAPIEKTISKAKGQPREPQVYTLPPSREEMTKNQVSLTCLVKGFYPSDIAVEWESNGQPENNYKTTPPVLDSDGSFFLYSKLTVDKSRWQQGNVFSCSVMHEALHNHYTQKSLSLSPGKLVLGPPLYNVSLVMSDTAGTAY
## Result no binding

## Task Please report the measured binding result for [change]/[change] (other) DKTHTCPPCPAPELLGGPSVFLFPPKPKDTLMISRTPEVTCVVVDVSHEDPEVKFNWYVDGVEVHNAKTKPREEQYASTYRVVSVLTVCLQDWLNGKEYKCKVSNKALPAPIEKTISKAKGQPREPQVYTLPPSREEMTKNQVSLTCLVKGFYPSDIAVEWESNGQPENNYKTTPPVLDSDGSFFLYSKLTVDKSRWQQGNVFSCSVMHEALHNHYTQKSLSLSPGKLVLGPPLYNVSLVMSDTAGTAY
## Result no binding

## Task Please report the measured binding result for [change]/[change]/[change] (other) DKTHTCPPCPAPELLGGPSVFLFPPKPKDTLMISRTPEVTCVVVDVSHEDPEVKFNWYVDGVEVHNAKTKPREEQYASTYRVVSVLTVCLQDWLNGKEYKCKVSNKALPAPIEKTISKAKGQPREPQVYTLPPSREEMTKNQVSLTCLVKGFYPSDIAVEWESNGQPENNYKTTPPVLDSDGSFFLYSKLTVDKSRWQQGNVFSCSVMHEALHNHYTQKSLSLSPGKLVLGPPLYAVSLVMSDTAGTAY
## Result binds

This collection of values is drawn from patent US20210024615A1.
